test: MTT cytotoxicity assay on noncancerous LLC-PK1 cells; type: cell-based; conditions: pig, LLC-PK1 pig kidney epithelial cells; 20 μM (paclitaxel reference); read-out: % Cell Viability on Noncancer LLC-PK1 cells
Measured endpoint: viability at 24 h, 20 µM (%)
Give just the number in %; leave the unit off.

Value lookup for viability at 24 h, 20 µM; key = CC(=O)O[C@H]1C(=O)[C@@]2(C)[C@H]([C@H](OC(=O)c3ccccc3)[C@]3(O)C[C@H](OC(=O)[C@H](O)[C@@H](NC(=O)c4ccccc4)c4ccccc4)C(C)=C1C3(C)C)[C@]1(OC(C)=O)CO[C@@H]1C[C@@H]2O [Paclitaxel, reference compound] 75

---

Documented viability at 24 h, 100 µM across a set of molecules
assay: MTT cytotoxicity assay on noncancerous LLC-PK1 cells; type: cell-based, Pig; conditions: pig, LLC-PK1 pig kidney epithelial cells; 100 μM; read-out: % Cell Viability on Noncancer LLC-PK1 cells
Hey, just the number and the unit after it is fine.

Compound smiles: O=C(/C=C/c1ccccc1Cl)c1ccc2c(c1)Nc1ccccc1S2
viability at 24 h, 100 µM: 94.8%
//
Compound smiles: COc1cc(/C=C/C(=O)c2ccccn2)cc(OC)c1OC
viability at 24 h, 100 µM: 104%
//
Compound smiles: COc1ccc(/C=C/C(=O)c2ccc3c(c2)Nc2ccccc2S3)c(OC)c1
viability at 24 h, 100 µM: 105%

Field: next molecule
Value lookup for viability at 24 h, 100 µM; key = O=C(/C=C/c1cccs1)c1ccc2c(c1)Nc1ccccc1S2 97.1%

---

test: MTT cytotoxicity assay on noncancerous LLC-PK1 cells; type: cell-based, Pig; conditions: pig, LLC-PK1 pig kidney epithelial cells; 10 μM (paclitaxel reference); read-out: % Cell Viability on Noncancer LLC-PK1 cells
Measured endpoint: viability at 24 h, 10 µM (%)
Give just the number in %; leave the unit off.

Value lookup for viability at 24 h, 10 µM; key = CC(=O)O[C@H]1C(=O)[C@@]2(C)[C@H]([C@H](OC(=O)c3ccccc3)[C@]3(O)C[C@H](OC(=O)[C@H](O)[C@@H](NC(=O)c4ccccc4)c4ccccc4)C(C)=C1C3(C)C)[C@]1(OC(C)=O)CO[C@@H]1C[C@@H]2O [Paclitaxel, reference compound] 108

---

assay: MTT cytotoxicity assay on noncancerous LLC-PK1 cells; type: cell-based; settings: pig, LLC-PK1 pig kidney epithelial cells; 2 μM (paclitaxel reference); read-out: % Cell Viability on Noncancer LLC-PK1 cells
Measured endpoint: viability at 24 h, 2 µM (%)
Give just the number in %; leave the unit off.

Value lookup for viability at 24 h, 2 µM; key = CC(=O)O[C@H]1C(=O)[C@@]2(C)[C@H]([C@H](OC(=O)c3ccccc3)[C@]3(O)C[C@H](OC(=O)[C@H](O)[C@@H](NC(=O)c4ccccc4)c4ccccc4)C(C)=C1C3(C)C)[C@]1(OC(C)=O)CO[C@@H]1C[C@@H]2O [Paclitaxel, reference compound] 103

---

assay: MTT cytotoxicity assay on noncancerous LLC-PK1 cells; type: cell-based, Pig; conditions: pig, LLC-PK1 pig kidney epithelial cells; 10 μM; read-out: % Cell Viability on Noncancer LLC-PK1 cells
Measured endpoint: viability at 24 h, 10 µM (%)
Give just the number in %; leave the unit off.

Field: example entries. Status: answers known.
Compound smiles: O=C(/C=C/c1ccccc1Cl)c1ccc2c(c1)Nc1ccccc1S2
viability at 24 h, 10 µM / %: 100
//
Compound smiles: O=C(/C=C/c1cccs1)c1ccc2c(c1)Nc1ccccc1S2
viability at 24 h, 10 µM / %: 98.8
//
Compound smiles: COc1ccc(/C=C/C(=O)c2ccc3c(c2)Nc2ccccc2S3)c(OC)c1
viability at 24 h, 10 µM / %: 97.3

Field: next compound
Value lookup for viability at 24 h, 10 µM; key = COc1cc(/C=C/C(=O)c2ccccn2)cc(OC)c1OC 99.1

---

Documented melting point across a set of compounds

Compound smiles: COc1ccc(/C=C/C(=O)c2ccc3c(c2)Nc2ccccc2S3)c(OC)c1
melting point: 178 to 179 °C

Compound smiles: O=C(/C=C/c1ccccc1Cl)c1ccc2c(c1)Nc1ccccc1S2
melting point: 202 to 203 °C

Compound smiles: CN(C)c1ccc(/C=C/C(=O)c2ccc3c(c2)Nc2ccccc2S3)cc1
melting point: 232 to 233 °C

Compound smiles: COc1ccc(C(=O)/C=C/c2cccnc2)c(O)c1
melting point: 128 to 129 °C

Compound smiles: O=C(/C=C/c1cccs1)c1ccc2c(c1)Nc1ccccc1S2
melting point: 229 to 230 °C

Value lookup for melting point; key = COc1ccc(C(=O)/C=C/c2ccccn2)c(O)c1 130 to 131 °C

Proceed to O=C(/C=C/c1ccc(OCc2ccccc2)cc1)c1ccc2c(c1)Nc1ccccc1S2 215 to 216 °C

Proceed to O=C(/C=C/c1cccc(Br)c1)c1ccc2c(c1)Nc1ccccc1S2 230 to 232 °C

---

test: MTT cytotoxicity assay on noncancerous LLC-PK1 cells; format: cell-based, Pig; details: pig, LLC-PK1 pig kidney epithelial cells; 50 μM; read-out: % Cell Viability on Noncancer LLC-PK1 cells
Documented viability at 24 h, 50 µM across a set of compounds
Give just the number in %; leave the unit off.

Field: example entries. Status: answers known.
Compound: COc1ccc(/C=C/C(=O)c2ccc3c(c2)Nc2ccccc2S3)c(OC)c1 [Compound 8]
viability at 24 h, 50 µM (%): 103

Compound: O=C(/C=C/c1ccccc1Cl)c1ccc2c(c1)Nc1ccccc1S2 [Compound 7]
viability at 24 h, 50 µM (%): 109

Compound: COc1cc(/C=C/C(=O)c2ccccn2)cc(OC)c1OC [Compound 16]
viability at 24 h, 50 µM (%): 102

Value lookup for viability at 24 h, 50 µM; key = O=C(/C=C/c1cccs1)c1ccc2c(c1)Nc1ccccc1S2 [Compound 9] 98.2
